Tested on: HCV NS5B polymerase 1a-H77-C316Y
Assay: biochemical
Set-up: species or system HCV genotype 1a
Settings: ratio of enzyme IC50s, 1a H77-C316Y / 1a H77
Recorded Metric: C316Y/1a Fold Resistance (fold)
Numbers only, in fold.

Consider the reported C316Y/1a Fold Resistance for these compounds:
compound="Cc1ncsc1CCN(c1cc2oc(-c3ccc(F)cc3)c(-c3ncc[nH]3)c2cc1C1CC1)S(C)(=O)=O [Example 78]" unit_tag=fold reported_result=27
compound="CS(=O)(=O)N(CC1CCOCC1)c1cc2oc(-c3ccc(F)cc3)c(-c3ncc[nH]3)c2cc1C1CC1 [Example 38]" unit_tag=fold reported_result=30

Take each entry in turn and give its C316Y/1a Fold Resistance.
1. CCOC(=O)CCCN(c1cc2oc(-c3ccc(F)cc3)c(C3=NOCCN3)c2cc1C1CC1)S(C)(=O)=O [Example 121]
2. CS(=O)(=O)N(CCCCC(N)=O)c1cc2oc(-c3ccc(F)cc3)c(-c3ncc[nH]3)c2cc1C1CC1 [Example 91]

Return:
[12, 15]

###

Tested on: HCV 1b-BB7 subgenomic replicon
Test: microbe, parasite or virus in culture
Assay type: cell-based, HCV genotype 1b
Conditions: Hepatitis C virus, stable replicon, strain 1b BB7, 5% FBS; read-out: 1b BB7 5% FBS EC50
EC50 vs 80 nM: less than gives YES; not less than gives NO.

Look over these answered cases.
compound=C=CCN(c1cc2oc(-c3ccc(F)cc3)c(-c3ncc[nH]3)c2cc1C1CC1)S(C)(=O)=O assigned_category=YES
compound=CC(C)N(c1cc2oc(-c3ccc(F)cc3)c(-c3ncc[nH]3)c2cc1C1CC1)S(C)(=O)=O assigned_category=NO
compound="CC(O)CN(c1cc2oc(-c3ccc(F)cc3)c(-c3ncc[nH]3)c2cc1C1CC1)S(C)(=O)=O (stereo not shown)" assigned_category=NO

Enquiry: Take the compound `CS(=O)(=O)N(CCCC(=O)O)c1cc2oc(-c3ccc(F)cc3)c(C3=NOCCN3)c2cc1C1CC1` and say whether its EC50 is less than 80 nM.
Return: NO

Enquiry: Take the compound `CS(=O)(=O)N(CCCC#N)c1cc2oc(-c3ccc(F)cc3)c(-c3ncc[nH]3)c2cc1C1CC1` and say whether its EC50 is less than 80 nM.
Return: YES

Enquiry: Take the compound CC(C)(O)C(O)CN(c1cc2oc(-c3ccc(F)cc3)c(-c3ncc[nH]3)c2cc1C1CC1)S(C)(=O)=O (stereo not shown) and say whether its EC50 is less than 80 nM.
Return: YES

Enquiry: Take the compound `COc1ccc(CN(c2cc3oc(-c4ccc(F)cc4)c(-c4ncc[nH]4)c3cc2OC(C)C)S(C)(=O)=O)cc1` and say whether its EC50 is less than 80 nM.
Return: NO

###

System: HCV NS5B polymerase 1a-H77-C316Y
Test: biochemical
Design: species or system HCV genotype 1a
Details: ratio of enzyme IC50s, 1a H77-C316Y / 1a H77
Can you tell me C316Y/1a Fold Resistance for the items I'm about to list?
Answers are plain numbers, in fold.

molecule=COc1ccc(CN(c2cc3oc(-c4ccc(F)cc4)c(-c4ncc[nH]4)c3cc2OC(C)C)S(C)(=O)=O)cc1 unit_tag=fold reported_result=556
molecule=CS(=O)(=O)N(Cc1ccccc1)c1ccc2c(-c3ncc[nH]3)c(-c3ccccc3)oc2c1 unit_tag=fold reported_result=2
molecule="CS(=O)(=O)N(CC1CCNC1)c1cc2oc(-c3ccc(F)cc3)c(-c3ncc[nH]3)c2cc1C1CC1 (stereo not shown)" unit_tag=fold reported_result=219

Below: the item to evaluate.
Enquiry: # input molecule: `CS(=O)(=O)N(CCCc1nsc(=O)[nH]1)c1cc2oc(-c3ccc(F)cc3)c(C3=NOCCN3)c2cc1C1CC1` ; wanted: its C316Y/1a Fold Resistance
Return: 35

###

System: HCV 1b-BB7 subgenomic replicon
Assay: microbe, parasite or virus in culture
Format: cell-based, HCV genotype 1b
Conditions: Hepatitis C virus, stable replicon, strain 1b BB7, 5% FBS + 40% human plasma; read-out: 1b BB7 5% FBS + 40% Human Plasma EC50
EC50 vs 400 nM: less than gives met; not less than gives not met.

Look over these answered cases.
molecule="CS(=O)(=O)N(CCC1CCOCC1)c1cc2oc(-c3ccc(F)cc3)c(-c3ncc[nH]3)c2cc1C1CC1 [Example 48]" assigned_category=met
molecule="CS(=O)(=O)N(CCCC#N)c1cc2oc(-c3ccc(F)cc3)c(C3=NOCCN3)c2cc1C1CC1 [Example 133]" assigned_category=met
molecule="CS(=O)(=O)N(CCC1CCCCC1)c1cc2oc(-c3ccc(F)cc3)c(-c3ncc[nH]3)c2cc1C1CC1 [Example 72]" assigned_category="not met"
molecule="CS(=O)(=O)N(CCOc1ccccc1)c1cc2oc(-c3ccc(F)cc3)c(-c3ncc[nH]3)c2cc1C1CC1 [Example 43]" assigned_category="not met"
molecule="CS(=O)(=O)N(CCCc1n[nH]c(=O)o1)c1cc2oc(-c3ccc(F)cc3)c(-c3ncc[nH]3)c2cc1C1CC1 [Example 179]" assigned_category=met

With those in mind, consider the next molecule.
Enquiry: Take the molecule CSCCN(c1cc2oc(-c3ccc(F)cc3)c(-c3ncc[nH]3)c2cc1C1CC1)S(C)(=O)=O [Example 74] and say whether its EC50 is less than 400 nM.
Return: met

###

Test system: HCV 1a-H77 subgenomic replicon
Test: microbe, parasite or virus in culture
Type: cell-based, HCV genotype 1a
Conditions: Hepatitis C virus, stable replicon, strain 1a H77, 5% FBS; read-out: 1a H77 5% FBS EC50
pEC50: −log10 of the molar value.
Use true (1) when the recorded pEC50 is no lower than 7; use false (0) when it is lower.

Look over these answered cases.
compound=CC(C)CCCN(c1cc2oc(-c3ccc(F)cc3)c(-c3ncc[nH]3)c2cc1C1CC1)S(C)(=O)=O assigned_category="true (1)"
compound="CC[S+]([O-])CCN(c1cc2oc(-c3ccc(F)cc3)c(C3=NOCCN3)c2cc1C1CC1)S(C)(=O)=O (stereo not shown)" assigned_category="true (1)"

Enquiry: Has `CS(=O)(=O)Nc1cc2oc(-c3ccc(F)cc3)c(-c3ncc[nH]3)c2cc1C1CC1` a recorded pEC50 greater than or equal to 7?
Return: false (0)

Enquiry: Has `CS(=O)(=O)N(CCC1CCOCC1)c1cc2oc(-c3ccc(F)cc3)c(-c3ncc[nH]3)c2cc1C1CC1` a recorded pEC50 greater than or equal to 7?
Return: true (1)

###

Target: HCV NS5B polymerase 1a-H77 (Hepatitis C virus genotype 1a, UniProt P27958)
Construct: six-histidine tag; made in house; host or cells: E. coli
Sequence (P27958 2421-2990): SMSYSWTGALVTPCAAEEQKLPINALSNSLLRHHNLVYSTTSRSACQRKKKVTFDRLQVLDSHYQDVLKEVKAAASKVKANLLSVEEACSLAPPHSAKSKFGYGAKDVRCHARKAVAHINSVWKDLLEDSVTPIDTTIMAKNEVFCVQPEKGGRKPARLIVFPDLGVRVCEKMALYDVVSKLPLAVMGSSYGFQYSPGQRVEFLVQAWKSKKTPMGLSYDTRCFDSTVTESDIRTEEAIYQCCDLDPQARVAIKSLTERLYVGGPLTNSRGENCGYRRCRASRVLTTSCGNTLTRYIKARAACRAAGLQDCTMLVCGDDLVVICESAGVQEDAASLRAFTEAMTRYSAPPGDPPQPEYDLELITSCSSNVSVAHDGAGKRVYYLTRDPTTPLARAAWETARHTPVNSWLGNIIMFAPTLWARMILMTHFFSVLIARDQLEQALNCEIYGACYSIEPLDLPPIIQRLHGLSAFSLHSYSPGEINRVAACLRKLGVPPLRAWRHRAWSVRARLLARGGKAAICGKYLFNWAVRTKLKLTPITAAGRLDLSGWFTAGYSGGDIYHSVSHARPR
Assay: biochemical
Set-up: species or system HCV genotype 1a
Conditions: enzyme, strain 1a H77; read-out: HCV Polymerase Strain 1a H77 IC50
pIC50: −log10 of the molar value.
Use Y when the recorded pIC50 is no lower than 8; use N when it is lower.

Look over these answered cases.
molecule="Cc1c[nH]c(-c2c(-c3ccc(F)cc3)oc3cc(N(CCO)S(C)(=O)=O)c(C4CC4)cc23)n1 [Example 189]" assigned_category=N
molecule="CS(=O)(=O)N(CCN1CCCC1)c1cc2oc(-c3ccc(F)cc3)c(C3=NOCCN3)c2cc1C1CC1 [Example 128]" assigned_category=N
molecule="CNS(=O)(=O)CCCN(c1cc2oc(-c3ccc(F)cc3)c(-c3ncc[nH]3)c2cc1C1CC1)S(C)(=O)=O [Example 86]" assigned_category=Y

Enquiry: Has CC(C)CCN(c1cc2oc(-c3ccc(F)cc3)c(C3=NOC(C)(C)N3)c2cc1C1CC1)S(C)(=O)=O [Example 152] a recorded pIC50 greater than or equal to 8?
Return: N

Enquiry: Has CS(=O)(=O)N(Cc1ccccc1)c1ccc2c(-c3ncc[nH]3)c(-c3ccccc3)oc2c1 [Example 21] a recorded pIC50 greater than or equal to 8?
Return: N

###

System: HCV 1a-H77 transient subgenomic replicon in Huh-7 derived cell line
Assay: microbe, parasite or virus in culture
Format: cell-based, HCV genotype 1a
Conditions: Hepatitis C virus, Huh-7; transient replicon, 5% FBS; read-out: Transient Replicon 1a H77 5% FBS EC50
pEC50: −log10 of the molar value.
Use criterion met when the recorded pEC50 is no lower than 8; use criterion not met when it is lower.

compound=CC(C)CCN(c1cc2oc(-c3ccc(Nc4ccccc4)cc3)c(-c3ncc[nH]3)c2cc1C1CC1)S(C)(=O)=O assigned_category="criterion met"

Enquiry: Has `CS(=O)(=O)Nc1cc2oc(-c3ccc(F)cc3)c(-c3ncc[nH]3)c2cc1C1CC1` a recorded pEC50 greater than or equal to 8?
Return: criterion not met

Enquiry: Has CC1NC(c2c(-c3ccc(F)cc3)oc3cc(N(CCS(C)(=O)=O)S(C)(=O)=O)c(C4CC4)cc23)=NO1 (stereo not drawn) a recorded pEC50 greater than or equal to 8?
Return: criterion not met

Enquiry: Has `CS(=O)(=O)CCCCN(c1cc2oc(-c3ccc(F)cc3)c(C3=NOCN3)c2cc1C1CC1)S(C)(=O)=O` a recorded pEC50 greater than or equal to 8?
Return: criterion met

Enquiry: Has `CCCC/C=C/c1ccc(-c2oc3cc(N(CCCCS(C)(=O)=O)S(C)(=O)=O)c(C4CC4)cc3c2-c2ncc[nH]2)cc1` a recorded pEC50 greater than or equal to 8?
Return: criterion met

Enquiry: Has `CCOC(=O)CCCN(c1cc2oc(-c3ccc(F)cc3)c(C3=NOCCN3)c2cc1C1CC1)S(C)(=O)=O` a recorded pEC50 greater than or equal to 8?
Return: criterion not met

Enquiry: Has CC1NC(c2c(-c3ccc(F)cc3)oc3cc(N(CCCCO)S(C)(=O)=O)c(C4CC4)cc23)=NO1 (stereo not drawn) a recorded pEC50 greater than or equal to 8?
Return: criterion met

Enquiry: Has `CS(=O)(=O)Nc1cc2oc(-c3ccc(F)cc3)c(C3=NOCN3)c2cc1C1CC1` a recorded pEC50 greater than or equal to 8?
Return: criterion not met
